# Test system: NCI-H226 lung
# test-method-notes: NCI tumour cell line growth inhibition, 48 h
Task for the reader: assign each of the following molecules its reported TGI.

(Q) GET TGI where system = NCI-H226 lung and item = CC(=O)C1=CCC2c3[nH]c4ccccc4c3CCN2C1 (stereo not drawn)
(A) > 100 µM

(Q) Find TGI for NCCSCCc1ccccc1 on NCI-H226 lung and write it down.
(A) > 100 µM

(Q) Provide NCI-H226 lung TGI reading for CC(=O)O[C@@H](C1C[C@@H](C)[C@H]2[C@@](O)(O1)[C@H](O)[C@@]1(C)C3=CC[C@H]4C(C)(C)[C@@H](OC5OCC(O)C(O)C5O)CC[C@@]45C[C@@]35CC[C@]21C)C(C)(C)O (stereo partly drawn) .
(A) 45.9 µM

(Q) Recall the reported TGI of Cc1c(C)c(S(=O)(=O)N(CCCCCON)OCCCN)c(C)c2c1OC(C)(C)CC2 on NCI-H226 lung and write it down.
(A) 36.7 µM

(Q) Quote TGI with test system NCI-H226 lung for CN1C(Cl)=NS(=O)(=O)c2ccccc21
(A) > 100 µM

(Q) Provide TGI, tested on NCI-H226 lung, for O=c1[nH]n(Cc2ccccc2Cl)c2ccccc12 .
(A) > 100 µM

(Q) Look up and report TGI, with NCI-H226 lung as system, for COc1ccc(-c2nn(-c3cccc(NC(=O)c4ccc(N5CCOCC5)c(C(F)(F)F)c4)c3)cc2-c2ccncc2)cc1Cl
(A) > 50 µM

(Q) Provide TGI, system NCI-H226 lung, entry C/C(=N\Nc1nc2ccccc2s1)c1cc(C)ncn1
(A) 4.46 µM

(Q) Please indicate recorded TGI of ClCc1ccc(Cn2cnc3c(Cl)nc(Cl)nc32)cc1 measured with NCI-H226 lung.
(A) 9.63 µM

(Q) Supply TGI measured with NCI-H226 lung for Cc1cccc2c(N)c3ccccc3nc12 .
(A) 6.19 µM

(Q) Recall the reported TGI of O=C1NC2(CCN(CCCC3(c4ccc(F)cc4)OCCO3)CC2)Oc2ccccc21 when tested on NCI-H226 lung.
(A) > 100 µM

(Q) Give TGI only, for COc1ccc(Nc2cc(C)nc(N3CCN(c4ccnc5cc(Cl)ccc45)CC3)n2)cc1 , using NCI-H226 lung data.
(A) > 100 µM

(Q) Return reported TGI for target or system NCI-H226 lung, item CC(C)C(NCc1c(O)ccc2c(-c3ccccc3)cc(=O)oc12)C(=O)O (stereo not drawn) .
(A) > 100 µM

(Q) // fetch TGI; item: Cc1cc(N(CCC#N)CCC#N)ccc1C=Nc1ccc(C(=O)NN2C(=O)/C(=C/c3ccc(N(CCC#N)CCC#N)cc3)N=C2c2cc([N+](=O)[O-])ccc2Cl)cc1 ; system: NCI-H226 lung
(A) > 100 µM

(Q) Give TGI; test system NCI-H226 lung; molecule O=C(Nc1ccn(CCI)c(=O)n1)c1ccccc1
(A) > 100 µM

(Q) # assay system NCI-H226 lung: give TGI of CCOC(=O)C(=O)C(CCC(=O)c1ccc2ccccc2c1O)C(=O)OCC (stereo not drawn)
(A) > 100 µM

(Q) State TGI (NCI-H226 lung) of CC(C)(C)OC(=O)N(CCCCNCc1ccc2ccccc2c1)CCCNCc1ccc2ccccc2c1 .
(A) 3.08 µM

(Q) Look up NCI-H226 lung data: TGI of CC1(C)O[C@@H](CBr)C[C@H](C[C@H]2C[C@@H](O)C[C@@H](CCOCc3ccccc3)O2)O1 , then report it.
(A) 35.5 µM

(Q) Name the recorded TGI of CC1=C(C(=O)Nc2ccc([N+](=O)[O-])cc2)C(c2ccccc2F)C(C(=O)Nc2ccc([N+](=O)[O-])cc2)=C(C)N1 , assay system NCI-H226 lung.
(A) 79.7 µM

(Q) Specify the recorded TGI for COc1ccc2c(c1)CCC(OS(=O)(=O)CC13CCC(CC1=O)C3(C)C)C2=O (stereo not drawn) , system: NCI-H226 lung.
(A) 65.2 µM

(Q) Please indicate recorded TGI of CN(C)CCN(C(=Nc1ccccc1)N1CCCC1)c1ccccc1 measured with NCI-H226 lung.
(A) > 100 µM

(Q) Write down measured TGI (NCI-H226 lung) for this molecule. CC#CC(O)(C(=O)OC1CC2CCC(C1)N2C)C1CCCC1 (stereo not drawn)
(A) > 100 µM

(Q) Give NCI-H226 lung TGI for the following molecule: Cc1cc2c(cc1Cl)SC(NNc1ccc([N+](=O)[O-])cc1)=NS2(=O)=O
(A) > 10 µM

(Q) Param request: TGI | system NCI-H226 lung | item CCC1CN2CCC3(c4ccccc4)CC(C(=O)OC)=CC1C23 (stereo not drawn)
(A) 36.2 µM

(Q) Give reported TGI for COc1cc2oc(=O)ccc2cc1CC=C(C)C (NCI-H226 lung)
(A) 98.6 µM

(Q) GET TGI | system: NCI-H226 lung | item: CN1CC(=O)N(C)c2nc[nH]c2C1=O
(A) > 100 µM

(Q) Report its TGI with NCI-H226 lung as the test system: Cc1nc2c(=O)n3c4c(cccc4c2o1)CCC3
(A) > 100 µM

(Q) Report value only: TGI, NCI-H226 lung, N#CC(C#N)=Cn1c(=S)[nH]c2ccccc21
(A) > 100 µM
